Just for reference, paper PMC7356940 is where these values come from.

ASSAY SUMMARY: Plasma and ELF pharmacokinetics after intratracheal administration, simultaneous PK modeling
CONDITIONS USED: male, Sprague–Dawley, rat, in vivo, rats, 0.35 mg·kg^−1, whatever the formulation used
Counter-ions that a name gives are not always drawn. Where a SMILES comes first, the peptide text is derived from it. Bridges are numbered along the chain shown (N, C = ends). [ ]: non-standard residue; d: D form. The star is where a group is joined. X1 = CC[C@H](C)CCCCC(=O)*; Dab = NCC[C@H](N)C(=O)O

COMPOUND	UNIT DESCRIPTOR	Tmax
CC[C@H](C)CCCCC(=O)N[C@@H](CCN)C(=O)N[C@H](C(=O)N[C@@H](CCN)C(=O)N[C@H]1CCNC(=O)[C@H]([C@@H](C)O)NC(=O)[C@H](CCN)NC(=O)[C@H](CCN)NC(=O)[C@H](CC(C)C)NC(=O)[C@@H](CC(C)C)NC(=O)[C@H](CCN)NC1=O)[C@@H](C)O [COLI, Colistin sulfate salt] (X1-[Dab]T[Dab][Dab][Dab][dL]L[Dab][Dab]T; lactam 4-C)	min	30

====

ASSAY SUMMARY: Apical-to-basolateral COLI transport across Calu-3 monolayers
Assay type: in vitro ADME
CONDITIONS USED: human; Calu-3, air-interface 15 days, apical-to-basolateral, COLI 100 mg/L (COLI or dissolved INU-COLI particles), HBSS/10 mM HEPES pH 7.4, 6 h, LC-MS/MS; read-out: COLI apparent permeability (Papp)
Structures can show the parent of a compound that is named as a salt. Where a SMILES comes first, the peptide text is derived from it. Bridges are numbered along the chain shown (N, C = ends). [ ]: non-standard residue; d: D form. The star is where a group is joined. X1 = CC[C@H](C)CCCCC(=O)*; Dab = NCC[C@H](N)C(=O)O
QUANTITY KIND: Papp A→B at 6 h, 100 mg/L (×10⁻⁶ cm/s)

MOLECULE	UNIT DESCRIPTOR	NUMERIC RESULT
CC[C@H](C)CCCCC(=O)N[C@@H](CCN)C(=O)N[C@H](C(=O)N[C@@H](CCN)C(=O)N[C@H]1CCNC(=O)[C@H]([C@@H](C)O)NC(=O)[C@H](CCN)NC(=O)[C@H](CCN)NC(=O)[C@H](CC(C)C)NC(=O)[C@@H](CC(C)C)NC(=O)[C@H](CCN)NC1=O)[C@@H](C)O [COLI, Colistin sulfate salt] (X1-[Dab]T[Dab][Dab][Dab][dL]L[Dab][Dab]T; lactam 4-C)	×10⁻⁶ cm/s	0.043

====

ASSAY SUMMARY: Plasma and ELF pharmacokinetics after intratracheal administration, simultaneous PK modeling
CONDITIONS USED: male, Sprague–Dawley, rat, in vivo, rats, 0.35 mg·kg^−1, whatever the formulation used
Where a name gives a salt, the structure may show the parent alone. Where a SMILES comes first, the peptide text is derived from it. Bridges are numbered along the chain shown (N, C = ends). [ ]: non-standard residue; d: D form. The star is where a group is joined. X1 = CC[C@H](C)CCCCC(=O)*; Dab = NCC[C@H](N)C(=O)O

COMPOUND	Cmax / ng/mL
CC[C@H](C)CCCCC(=O)N[C@@H](CCN)C(=O)N[C@H](C(=O)N[C@@H](CCN)C(=O)N[C@H]1CCNC(=O)[C@H]([C@@H](C)O)NC(=O)[C@H](CCN)NC(=O)[C@H](CCN)NC(=O)[C@H](CC(C)C)NC(=O)[C@@H](CC(C)C)NC(=O)[C@H](CCN)NC1=O)[C@@H](C)O [COLI, Colistin sulfate salt] (X1-[Dab]T[Dab][Dab][Dab][dL]L[Dab][Dab]T; lactam 4-C)	330
